Molecular target: progesterone receptor (PR) (Homo sapiens)
Sequence (P06401 1-933): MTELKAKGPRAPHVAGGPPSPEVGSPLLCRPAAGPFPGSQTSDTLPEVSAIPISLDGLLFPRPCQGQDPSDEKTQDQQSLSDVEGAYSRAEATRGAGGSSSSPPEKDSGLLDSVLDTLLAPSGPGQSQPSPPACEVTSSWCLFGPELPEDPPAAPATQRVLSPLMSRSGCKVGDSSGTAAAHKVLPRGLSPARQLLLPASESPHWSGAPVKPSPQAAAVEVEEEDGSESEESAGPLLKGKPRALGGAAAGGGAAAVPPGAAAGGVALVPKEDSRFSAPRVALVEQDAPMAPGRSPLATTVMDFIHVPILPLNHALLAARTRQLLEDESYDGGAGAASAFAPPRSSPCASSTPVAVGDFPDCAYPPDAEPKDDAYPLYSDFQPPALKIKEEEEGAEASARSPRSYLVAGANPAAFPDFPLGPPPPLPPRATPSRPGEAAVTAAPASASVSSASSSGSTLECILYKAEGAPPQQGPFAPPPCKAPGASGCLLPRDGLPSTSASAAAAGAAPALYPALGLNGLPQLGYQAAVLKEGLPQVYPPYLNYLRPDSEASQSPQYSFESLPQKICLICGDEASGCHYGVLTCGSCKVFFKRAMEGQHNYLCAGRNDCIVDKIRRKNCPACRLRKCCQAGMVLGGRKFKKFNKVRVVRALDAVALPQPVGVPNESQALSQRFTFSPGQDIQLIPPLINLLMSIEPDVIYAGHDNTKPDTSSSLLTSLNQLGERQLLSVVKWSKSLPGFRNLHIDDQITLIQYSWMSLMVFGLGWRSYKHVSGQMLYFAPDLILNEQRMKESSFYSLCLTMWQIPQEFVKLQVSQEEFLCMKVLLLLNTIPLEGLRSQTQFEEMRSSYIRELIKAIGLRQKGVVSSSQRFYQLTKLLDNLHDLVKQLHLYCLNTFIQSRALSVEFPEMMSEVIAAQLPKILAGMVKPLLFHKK
Below, each of the molecules is paired with its reported IC50 value.

[
  {
    "molecule": "CCCS(=O)(=O)N(C)c1cccc(C2Oc3cccc(OC)c3-c3ccc(NS(C)(=O)=O)cc32)c1 (centres unmarked)",
    "IC50": "> 10 µM"
  },
  {
    "molecule": "COc1cccc2c1-c1ccc(NS(C)(=O)=O)cc1C(CCCCCCC#N)O2 (centres unmarked)",
    "IC50": "> 10 µM"
  },
  {
    "molecule": "COc1ccc(-c2cccc(C3Oc4cccc(OC)c4-c4ccc(NS(C)(=O)=O)cc43)c2)cc1 (centres unmarked)",
    "IC50": "> 10 µM"
  }
]

// query Request the reported IC50 associated with CS(=O)(=O)Nc1ccc2c(c1)C(c1cccc(-c3ccc(F)cc3)c1)Oc1cccc(OC(F)F)c1-2 (centres unmarked)
// result 0.14 µM

// query What value of IC50 has been reported for the following molecule? O=S(=O)(Nc1ccc2c(c1)C(c1ccccc1)Oc1cccc(OC(F)F)c1-2)c1cccs1 (centres unmarked)
// result 0.029 µM

// query Please report the recorded IC50 for COc1cccc2c1-c1ccc(NS(C)(=O)=O)cc1C(c1cccc(-c3ccc(N(C)C)cc3)c1)O2 (centres unmarked) .
// result > 10 µM

// query Fill in the blank: the reported IC50 of COc1cccc2c1-c1ccc(NS(C)(=O)=O)c(C)c1C(c1cccc(C(F)(F)F)c1)O2 (centres unmarked) is ____.
// result 5.63 µM

// query Find the recorded IC50 belonging to CCOC(=O)CCCCCc1cccc(C2Oc3cccc(OC(F)F)c3-c3ccc(NS(C)(=O)=O)cc32)c1 (centres unmarked) and report it.
// result 1.96 µM
